# protocol.details: in vitro
# assay.setup: human, hela cells, % viability
For each entry below, report its viability at 28.5 h, 10 µM value.
Express it in %; write the number only.

In: What does the record list as viability at 28.5 h, 10 µM for Cc1nc(C2CN(Cc3cc4ccccc4nc3Cl)CCO2)no1 (stereo not shown) ?
Out: 96.5

In: What does the record list as viability at 28.5 h, 10 µM for COCCCn1c(=O)[nH]c2ncc(-c3ccc(C(=O)N4CCOCC4)cc3)nc21 ?
Out: 97.8

In: What does the record list as viability at 28.5 h, 10 µM for CC1=NN(c2ccccc2)C(=O)/C1=C\c1cn(CCC(=O)O)nc1-c1cc2ccccc2o1 ?
Out: 88.1

In: What does the record list as viability at 28.5 h, 10 µM for O=C(c1nccs1)C1CCN(C(=O)CC2CCCC2)CC1 ?
Out: 107

In: What does the record list as viability at 28.5 h, 10 µM for CCCc1ccc(S(=O)(=O)N2CCN(Cc3ccc4c(c3)OCO4)CC2)cc1 ?
Out: 107

In: What does the record list as viability at 28.5 h, 10 µM for OC(COCc1ccco1)CN1CCc2sccc2C1C1CC1 (stereo not shown) ?
Out: 119

In: What does the record list as viability at 28.5 h, 10 µM for CCn1ccnc1CN1CCCC(CCc2ccccc2F)C1 (stereo not shown) ?
Out: 99.3

In: What does the record list as viability at 28.5 h, 10 µM for Cc1cccnc1NC(=O)c1ccc(N2CCN(C)CC2)c([N+](=O)[O-])c1 ?
Out: 95.4

In: What does the record list as viability at 28.5 h, 10 µM for O=C(CN1C(=O)COc2ccccc21)NC1CC1 ?
Out: 96

In: What does the record list as viability at 28.5 h, 10 µM for O=C1CC(c2ccco2)CC(=O)C1=CNCCN1CCN(C(=O)Nc2ccc(Cl)cc2)CC1 (stereo not shown) ?
Out: 80.2

In: What does the record list as viability at 28.5 h, 10 µM for Cc1cnc(CNC(=O)N2CCN(c3ccc(F)cc3)CC2)cn1 ?
Out: 93.7

In: What does the record list as viability at 28.5 h, 10 µM for Cc1cnc(CNC(=O)N2CCc3ccccc3C2)cn1 ?
Out: 97.3

In: What does the record list as viability at 28.5 h, 10 µM for COc1ccc2c(c1)c1nc(C)sc1n2CCN1CCCCC1 [CBK269909C] ?
Out: 93.3

In: What does the record list as viability at 28.5 h, 10 µM for CC(=O)OCc1c(C)cc(C)c(CN(C)C(C)c2ccon2)c1C (stereo not shown) ?
Out: 79.3

In: What does the record list as viability at 28.5 h, 10 µM for CC(C)SCC(=O)Nc1ccc(Br)cc1 ?
Out: 102

In: What does the record list as viability at 28.5 h, 10 µM for O=C(O)CCC(=O)N1N=C(c2c(-c3ccccc3)c3cc(Cl)ccc3[nH]c2=O)CC1c1ccccn1 (stereo not shown) ?
Out: 97.3

In: What does the record list as viability at 28.5 h, 10 µM for CCCS(=O)(=O)N1CCCC(Cc2ccc(F)cc2F)(C(=O)OCC)C1 (stereo not shown) ?
Out: 85.5

In: What does the record list as viability at 28.5 h, 10 µM for Cc1cc2nnc(SC(C)c3nc(-c4ccccc4)no3)n2c(C)n1 (stereo not shown) ?
Out: 91.7

In: What does the record list as viability at 28.5 h, 10 µM for COC(=O)c1ccccc1NC(=O)CNS(=O)(=O)c1ccc(C)cc1 ?
Out: 94.7
